Origin of measurements: PubChem BioAssay (NCI)

# System: LOX IMVI melanoma
# ASSAY: NCI tumour cell line growth inhibition, 48 h; in the data active = GI50 below about 0.43 µM; inactive = the rest
Give your call using only these classes: class 1 = active, class 0 = inactive

In [3]: df
Out[3]:
                                   compound  classification
0  COCCOc1cc(F)c2c(Nc3ccc(NC(=O)Cn4cc(C(C)C)nn4)cc3)ncnc2c1         class 0
1  CC(C)c1ccc(Nc2ccc3c(OCCCN4CCN(C)CC4)cccc3n2)cc1         class 0
2        Cc1c2cccnc2c(C)c2c1c1cc(CO)ccc1n2C         class 0
3  CC(O)C(N=Cc1ccccc1[O-])C(=O)[O-].CC(O)C(N=Cc1ccccc1[O-])C(=O)[O-].[Co+2] (stereo not given)         class 0
4  C/C1=C\CC[C@@]2(C)O[C@@H]2[C@H]2OC(=O)[C@@H](CN(C)C)[C@@H]2CC1         class 0

Can you look up the reported call for Cc1ccc(Cl)cc1Nc1nc(C(F)(F)F)ccc1C(=O)N1CCN(c2ccc(F)cc2)CC1 for me?
class 0

Can you check COc1ccc2c(c1)C(C)Cc1c(Cl)ncnc1N2C (stereo not given) next?
class 1

----------
# Tested on: U251 CNS
Give your call using only these classes: class 1 for active, class 0 for inactive

COMPOUND	ASSAYED_SYSTEM	CLASSIFICATION
COc1ccc(C(=O)c2cc(OC)c(C)c(OC)c2)cc1OC(=O)CCl	U251 CNS	class 1
Ic1ccc(Nc2nc3nonc3nc2Nc2ccc(I)cc2)cc1	U251 CNS	class 1
C/C1=C\CC[C@@]2(C)O[C@@H]2[C@H]2OC(=O)[C@@H](CN(C)C)[C@@H]2CC1	U251 CNS	class 0
CC(SC(C)C(=O)N/N=C/c1cccc(Cl)c1)C(=O)N/N=C\c1cccc(Cl)c1 (stereo not drawn)	U251 CNS	class 0
Cn1c(=O)c2c(nc(Nc3cc(=O)[nH]c(=O)[nH]3)n2Cc2ccccc2)n(C)c1=O	U251 CNS	class 0

Can you look up the reported call for CCOC(=O)Oc1c(OC)cc(C(=O)NC2CCc3cc(OC)c(OC)c(OC)c3-c3ccc(SC)c(=O)cc32)cc1OC (stereo not drawn) for me?
class 1

Can you check COc1cc(Nc2cn[nH]c2-c2ccc(Cl)cc2)cc(OC)c1OC next?
class 0

Can you check Clc1ccc2c(NCCCNc3nccc(Nc4ccc(Br)cc4)n3)ccnc2c1 next?
class 0

Can you check CCN1CCN(c2ccc(Nc3cc(N(C)C(=O)Nc4c(Cl)c(OC)cc(OC)c4Cl)ncn3)cc2)CC1 next?
class 0

Can you check O=C(c1ccccc1)c1cc(Cl)ccc1OCCCCN1CCN(CCCCOc2ccc(Cl)cc2C(=O)c2ccccc2)CC1 next?
class 0

Can you check C[As](C)SC1OC(CO)C(O)C1O (stereo not drawn) next?
class 0

Can you check Fc1c[c-]c(-c2ccccn2)c(F)c1.Fc1c[c-]c(-c2ccccn2)c(F)c1.[Cl][Pt+].[Cl][Pt+].c1ccc([PH+](C[PH+](c2ccccc2)c2ccccc2)c2ccccc2)cc1 next?
class 1

Can you check CC(C)=C[C@@H]1C[C@H](C)[C@H]2CC[C@H](C)C3=C2[C@](O)(OC3=O)[C@]1(C)O next?
class 0

----------
# Test system: UACC-62 melanoma
# ASSAY: NCI tumour cell line growth inhibition, 48 h
Assignment: determine reported TGI for the given molecules.

Solved entries:
>>> print(df.to_string())
                                 molecule  experimental_result
0   CNC(=S)N(C)C(=S)Nn1c(=O)c(C)nn(C)c1=S             > 100 µM
1  O=C(O/N=C1/CCCC/C1=C\c1ccccc1)c1ccccc1             > 100 µM

Please look at the items below and tell me TGI for each one, in order.
1. CCN(CC)CCOc1ccc(/C=C(\C#N)c2ccc(OCCN(CC)CC)cc2)cc1
2. Oc1ccc(Cl)cc1Cc1cc(Cl)cc(Cl)c1O
3. O=C(Nc1ccc(OS(=O)(=O)c2ccccc2)cc1)C12CC3CC(CC(C3)C1)C2
4. COC(=O)C1=C(C)N(NC(=O)c2ccccc2)C(C)(O)C12CCOC2=O (stereo unspecified)

1: 31.9 µM; 2: 18.8 µM; 3: > 100 µM; 4: > 100 µM
